Hello, the source for this data is PubChem BioAssay (NCI), in case you need it.

Experiment: NCI Yeast Anticancer Drug Screen. Data for the rad50EPP+ strain (AID 151);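 also: 0% = growth of vehicle-treated control cultures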
Settings: S. cerevisiae rad50 mutant strain, at 3.7 µM, hits give high values
Compounds without any hit were thinned out: in the full panel of roughly 79,000, 15% have a hit.
assay endpoint: growth inhibition (%)
Expressed in %, but write only the number.

Answered examples (5):
c1ccc2c(c1)ccn2CCc1c[nH]c2ccccc12 : -5
CC1=CC(=O)C=CC1=Nc1cc(Cl)c(O)c(Cl)c1 : -15
CN1CCN(C(=O)c2cccc3cccc(C(=O)O)c23)CC1 : 12
COC(=O)C(Cl)(Cl)N=Nc1c(Cl)cc(Cl)c(C)c1Cl : 83
CC(C)OC(=O)NNc1cccc(Cl)c1 : 33

Asked: Which growth inhibition reading was recorded for the compound Cc1ccc(C)c(C(=N)c2ccccc2Cc2ccccc2)c1 ?
Given back: 2

Asked: Request the reported growth inhibition associated with CN1C(=O)C(CC(=O)O)NC1=S (configuration not stated)
Given back: -3

Asked: What value of growth inhibition has been recorded for this entry: CCCCCCCCCCCCCCCCCCNC(=S)/N=C/c1c(O)c2ccccc2[nH]c1=O
Given back: 3

Asked: What does the data say about its growth inhibition? Entry: CC(C)=CCc1c2c(c(O)c3c(=O)c(-c4ccc(O)c(O)c4)coc13)C=CC(C)(C)O2
Given back: -42

Asked: For Cc1c2cc[n+](CCO)cc2c(C)c2c1[nH]c1ccc(O)cc12 , what is its reported growth inhibition?
Given back: 57

Asked: I'd like to know its growth inhibition. The compound in question is C1=CCN([B-](c2ccccc2)[C+]2CCCCC2)C=C1
Given back: -4

Asked: Item under review: O=C1C(CCSc2ccccc2)C(=O)N(c2ccccc2)C1c1ccccc1 (configuration not stated) . Reported growth inhibition?
Given back: -12

====

Test: NCI Yeast Anticancer Drug Screen. Data for the rad52 strain (AID 147);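 also: 0% = growth of vehicle-treated control cultures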
Settings: S. cerevisiae rad52 mutant growth inhibition; at 1.2 µM
This is part of a sample that, as a whole, favours compounds with a hit. Of some 79,000 tested, about 15% had one in any assay. The source made the active and inactive calls. Rule as the data show it: active = growth inhibition above about 70%; inactive = the rest.
Give one outcome, nothing more. List: active, inactive

# count of solved cases: 3
CCCCS(=O)(=O)Nc1ccc(Nc2c3ccccc3nc3ccccc23)c(OC)c1 : inactive
C/C(=N\OCC(O)CNCCSCc1ccccc1)c1ccccc1Cl (stereo not drawn) : inactive
CCC(C)(C)c1ccc(Oc2ccccc2)c(N)c1 : inactive

Asked: # outcome recorded in this test, key = CN(C)CC1=Nc2cccc3cccc(c23)N1
Given back: inactive

Asked: Per the assay record, what outcome was assigned to CCCCCCNCCCNc1c2cc(OC)ccc2nc2cccc([N+](=O)[O-])c12 ?
Given back: inactive

Asked: For this molecule, state the assay outcome: CC1CN(/N=C\c2ccc([N+](=O)[O-])o2)C(=O)O1 (stereo not drawn)
Given back: inactive

Asked: # fetch the recorded call for COc1cc([N+](=O)[O-])c2ncccc2c1Br here
Given back: inactive

Asked: Hey, what did the test say about S=C(NCc1ccccn1)N/N=C/c1ccccn1 ?
Given back: active

Asked: Lab log entry: CCC[CH2][Sn]([CH2]CCC)([CH2]CCC)/[C](=C/[Si](C)(C)c1ccccc1)c1ccc2c(c1)OCO2 — outcome as called in the assay?
Given back: inactive

Asked: // outcome(item) with item = Cc1cccc(C)c1NC(=O)C(C#N)C1=C(Cl)C(=O)c2ccccc2C1=O (stereo not drawn)
Given back: inactive

====

Assay: NCI Yeast Anticancer Drug Screen. Data for the sgs1 strain (AID 173);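 also: 0% = growth of vehicle-only control cultures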
Details: S. cerevisiae sgs1 mutant, at 3.7 µM, hits give high values
This is part of a sample that, as a whole, favours compounds with a hit. Of some 79,000 tested, about 15% had one in any assay.
// reported growth inhibition for each item listed
Kindly provide the numeric value in % only, without the unit symbol.

CCN(CC)CCNc1ccc(C)c2sc3ccc(O)cc3c(=O)c12 : 32

Asked: Any idea what growth inhibition was measured for O=CC1(F)CC1(c1ccccc1)c1ccccc1 (stereo not drawn) ?
Given back: -1

Asked: Form field: reported growth inhibition of NC(CCCCCCCCCCCCC(N)C(=O)c1ccccc1)C(=O)c1ccccc1 (stereo not drawn)
Given back: -7

Asked: Can you look up the measured growth inhibition of CNC(=S)N/N=C(/C)CCC/C(C)=N/NC(=S)NC for me?
Given back: 24

Asked: Which growth inhibition is listed for N#[N+]c1c([O-])c2ccccc2c2ccccc12 ?
Given back: 4

Asked: Query: growth inhibition; subject: C[N+](C)([O-])CCCNc1c2ccccc2nc2cccc([N+](=O)[O-])c12
Given back: 89

Asked: # input compound: COc1ccc2cc3c4cc5c(cc4cc[n+]3cc2c1OC)OCO5 ; wanted: its growth inhibition
Given back: 28

Asked: Would you kindly share the measured growth inhibition for O=[N+]([O-])c1ccc(S(=O)(=O)Cc2ccccc2)c([N+](=O)[O-])c1 ?
Given back: 30

====

Test: NCI Yeast Anticancer Drug Screen. Data for the wt1 strain (AID 149);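 also: 0% = growth of vehicle-treated wt1 cultures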
Settings: S. cerevisiae wt1 strain (SPY 50644) growth inhibition; at 33.0 µM; hits give high values
The panel holds about 79,000 compounds, 15% with a hit somewhere; the sample as a whole holds those more often.
Items are presented alongside their recorded growth inhibition.
Use % as the unit, but write only the number.

Asked: I would be grateful if you could share the reported growth inhibition for Cc1oc2ccccc2c(=O)c1Cn1nnc2ccccc21 .
Given back: -6

Asked: Which growth inhibition reading was recorded for the compound CCCCCCCSCC1C(=O)C23C(O)C1CCC2C12COC3(O)C(O)C1C(C)(C)CCC2O (configuration not stated) ?
Given back: 95

Asked: I have this compound here, O=[N+]([O-])c1ccc(C(c2c[nH]c3ccccc23)c2c[nH]c3ccccc23)cc1 , and I need its recorded growth inhibition.
Given back: 92

Asked: Can you share its growth inhibition? I mean this compound: O=S1(=O)CCC2=CC(C(F)(F)F)=CC(C(F)(F)F)=CN21
Given back: 83

Asked: I would be grateful if you could share the reported growth inhibition for O=C(O)C1CCCCC1c1c2ccc(=O)cc-2oc2cc(O)ccc12 (configuration not stated) .
Given back: 12

Asked: Sample BrC1C2CCC3OC3C12 (configuration not stated) — what was its growth inhibition?
Given back: 98

Asked: Record request: growth inhibition value, item COc1ccc2nc(CCc3ccccc3)ccc2c1
Given back: -7

Asked: Using the record for CCOc1ccc(N)c(S)c1 , report its growth inhibition.
Given back: 38

Asked: Value lookup for growth inhibition; key = Nc1cc2ccccc2cc1N
Given back: 3

Asked: For the compound shown here, CC(C)C(=O)CC(Sc1ccc(N)cc1)c1ccccc1 (configuration not stated) , give the reported growth inhibition.
Given back: 10

Asked: Item C[N+](C)([O-])CCCNc1c2ccccc2nc2cccc([N+](=O)[O-])c12 has what recorded growth inhibition?
Given back: 80

Asked: Look at this compound and give its reported growth inhibition. CCCCCCCCSC1=C(Cl)C(=O)C(OC)=C(OC)C1=O
Given back: 0

====

Assay: NCI Yeast Anticancer Drug Screen. Data for the mec2-1 strain (AID 157)
Settings: S. cerevisiae mec2-1 strain, at 33.0 µM
Procedure: Growth inhibition of yeast strains with defined genetic alterations is measured as a screen for potential anti-cancer activity. Selected strains with alterations in DNA damage repair or cell cycle control were exposed to compounds and growth inhibition was measured relative to vehicle treated controls. The strain used in this assay is mec2-1
Compounds without any hit were thinned out: in the full panel of roughly 79,000, 15% have a hit. Activity calls are given as the source filed them. Rule as the data show it: active = growth inhibition above about 70%; inactive = the rest.
Write down one outcome, taken from T = active, F = inactive

Completed entries (count: 2):
COc1ccc2cc(C(C)C(=O)N3CCOC3=O)ccc2c1 (centres undefined) : F
O=CC1(F)CC1(c1ccccc1)c1ccccc1 (centres undefined) : F

Asked: Hello, I am checking results. What call was entered for O=C(NC(N1CCN(c2cc3c(cc2F)c(=O)c(C(=O)O)cn3C2CC2)CC1)(C(F)(F)F)C(F)(F)F)c1ccccc1 ?
Given back: F

====

Assay: NCI Yeast Anticancer Drug Screen. Data for the rad50 strain (AID 155);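 also: 0% = growth of vehicle-only cultures of the same strain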
Conditions: S. cerevisiae rad50 strain growth inhibition; at 50.0 µM; hits give high values
The panel holds about 79,000 compounds, 15% with a hit somewhere; the sample as a whole holds those more often.
assay endpoint: growth inhibition (%)
A number alone suffices; assume %.

Examples with their reported growth inhibition follow.
O=C(NC(N1CCN(c2cc3c(cc2F)c(=O)c(C(=O)O)cn3C2CC2)CC1)(C(F)(F)F)C(F)(F)F)c1ccccc1 : 46.8
O=C(C#Cc1ccccc1)Nc1ccccc1 : 45.8
CC(CC/C(=N/O)c1ccccc1)(CC/C(=N\O)c1ccccc1)[N+](=O)[O-] (stereo unspecified) : 11.4
O=C(C(Cl)=C(N1CCCCC1)N1CCCCC1)C(Cl)Cl : 64.4
CC(=O)O/N=C1C=C/C(=C(/C#N)c2ccccc2)C=C/1C : 99.5
O=C(c1cc(=O)c2ccc(O)cc2o1)c1ccc(Cl)cc1Cl : 86.5
O=C(O)/C=C\C(=O)Nc1ccc2c(c1)Cc1cc(Cl)ccc1-2 : -6.3
CCCCOc1ccc2nc(C)cc(N=[N+]=[N-])c2c1 : 19.7

Asked: Requested field: growth inhibition. Item: O=S(=O)(NC1CCCC(c2ccccc2)C1)c1ccccc1 (stereo unspecified)
Given back: 18.2

Asked: Give its growth inhibition value. Item: Cc1cc2nc3ccccc3n2c2ccccc12
Given back: 41

Asked: Please look up its growth inhibition: O=C(CCSC1=NCCCN1)c1ccc(F)cc1
Given back: 4.9
